// each record: one item and its MIC for Candida tropicalis 85-8

[
  {
    "smiles_text": "COc1cc(O)c2c(c1)C(=O)c1c(cc3c(c1O)-c1c(cc(C)c(C(=O)N[C@H](C)C(=O)O)c1O)[C@H](O[C@@H]1O[C@H](C)[C@H](N(C)N=O)[C@H](O[C@@H]4OC[C@@H](O)[C@H](O)[C@H]4O)[C@H]1O)[C@H]3O)C2=O",
    "system": "Candida tropicalis 85-8",
    "unit_annotation": "mg/L",
    "MIC": 12.5
  },
  {
    "smiles_text": "COc1cc(O)c2c(c1)C(=O)c1c(cc3c(c1O)-c1c(cc(C)c(C(=O)N[C@H](C)C(=O)O)c1O)[C@H](O[C@@H]1O[C@H](C)[C@H](NC=N)[C@H](O[C@@H]4OC[C@@H](O)[C@H](O)[C@H]4O)[C@H]1O)[C@H]3O)C2=O",
    "system": "Candida tropicalis 85-8",
    "unit_annotation": "mg/L",
    "MIC": 50
  },
  {
    "smiles_text": "COc1cc(O)c2c(c1)C(=O)c1c(cc3c(c1O)-c1c(cc(C)c(C(=O)N[C@H](C)C(=O)O)c1O)[C@H](O[C@@H]1O[C@H](C)[C@H](NC(=N)N[N+](=O)[O-])[C@H](O[C@@H]4OC[C@@H](O)[C@H](O)[C@H]4O)[C@H]1O)[C@H]3O)C2=O",
    "system": "Candida tropicalis 85-8",
    "unit_annotation": "mg/L",
    "MIC": 12.5
  },
  {
    "smiles_text": "COc1cc(O)c2c(c1)C(=O)c1c(cc3c(c1O)-c1c(cc(C)c(C(=O)N[C@H](CO)C(=O)O)c1O)[C@H](O[C@@H]1O[C@H](C)[C@H](N(C)C#N)[C@H](O[C@@H]4OC[C@@H](O)[C@H](O)[C@H]4O)[C@H]1O)[C@H]3O)C2=O",
    "system": "Candida tropicalis 85-8",
    "unit_annotation": "mg/L",
    "MIC": 12.5
  }
]

----------
- System: Aspergillus fumigatus IAM 2034
- test_name: MIC, two-fold agar dilution, A. fumigatus IAM 2034
- Type: cell-based
- experimental_setup: IAM2034; Aspergillus fumigatus IAM 2034; YMA pH 7.0, 28° C., 40 hours; read-out: MIC
assay_metric: MIC (µg/mL)

[
  {
    "molecule": "COc1cc(O)c2c(c1)C(=O)c1c(cc3c(c1O)-c1c(cc(C)c(C(=O)N[C@H](C)C(=O)O)c1O)[C@H](O[C@@H]1O[C@H](C)[C@H](NC#N)[C@H](O[C@@H]4OC[C@@H](O)[C@H](O)[C@H]4O)[C@H]1O)[C@H]3O)C2=O [KHM-2, 4'-N-Cyanopradimicin C]",
    "assay_metric": "MIC",
    "value_observed": 3.1
  },
  {
    "molecule": "COc1cc(O)c2c(c1)C(=O)c1c(cc3c(c1O)-c1c(cc(C)c(C(=O)N[C@H](C)C(=O)O)c1O)[C@H](O[C@@H]1O[C@H](C)[C@H](NC(=N)N)[C@H](O[C@@H]4OC[C@@H](O)[C@H](O)[C@H]4O)[C@H]1O)[C@H]3O)C2=O [KHM-8, 4'-Guanidinopradimicin C]",
    "assay_metric": "MIC",
    "value_observed": 3.1
  },
  {
    "molecule": "CN[C@@H]1[C@H](O[C@@H]2OC[C@@H](O)[C@H](O)[C@H]2O)[C@@H](O)[C@H](O[C@H]2c3cc(C)c(C(=O)N[C@H](CO)C(=O)O)c(O)c3-c3c(cc4c(c3O)C(=O)c3cc(OC)cc(O)c3C4=O)[C@@H]2O)O[C@@H]1C [Pradimicin FA-1, reference compound]",
    "assay_metric": "MIC",
    "value_observed": 1.6
  },
  {
    "molecule": "COc1cc(O)c2c(c1)C(=O)c1c(cc3c(c1O)-c1c(cc(C)c(C(=O)N[C@H](CO)C(=O)O)c1O)[C@H](O[C@@H]1O[C@H](C)[C@H](N)[C@H](O[C@@H]4OC[C@@H](O)[C@H](O)[C@H]4O)[C@H]1O)[C@H]3O)C2=O [Pradimicin FA-2, reference compound]",
    "assay_metric": "MIC",
    "value_observed": 1.6
  }
]
